B1: CLPTM1 (parent)
chain: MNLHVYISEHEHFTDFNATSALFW

- Variants of: B1
- measurement_protocol: protein stability index of a GFP-peptide fusion (GPS, HEK-293T) (PSI 1-6); higher = more stable;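 note: lentivirally expressed fusions sorted by FACS into six bins by GFP to DsRed ratio, PSI derived from sequencing read proportions per bin multiplied by bin number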
- assay_setup: c terminus: a fixed tail appended
Okay, here is how we bin by protein stability index: class 0 (below 2), class 1 (2 to below 3), class 2 (3 or more)

Asked: Place this variant in its band: "MLLHVYISEHEHFTDFNATSALFW"
Given back: class 1

Asked: Place this variant in its band: "MNLEVYISEHEHFTDFNATSALFW"
Given back: class 0
